# STUDY TARGET: T1, FLAG-hnRNP LL (UniProt Q8WVV9 1-542)
# T1 sequence: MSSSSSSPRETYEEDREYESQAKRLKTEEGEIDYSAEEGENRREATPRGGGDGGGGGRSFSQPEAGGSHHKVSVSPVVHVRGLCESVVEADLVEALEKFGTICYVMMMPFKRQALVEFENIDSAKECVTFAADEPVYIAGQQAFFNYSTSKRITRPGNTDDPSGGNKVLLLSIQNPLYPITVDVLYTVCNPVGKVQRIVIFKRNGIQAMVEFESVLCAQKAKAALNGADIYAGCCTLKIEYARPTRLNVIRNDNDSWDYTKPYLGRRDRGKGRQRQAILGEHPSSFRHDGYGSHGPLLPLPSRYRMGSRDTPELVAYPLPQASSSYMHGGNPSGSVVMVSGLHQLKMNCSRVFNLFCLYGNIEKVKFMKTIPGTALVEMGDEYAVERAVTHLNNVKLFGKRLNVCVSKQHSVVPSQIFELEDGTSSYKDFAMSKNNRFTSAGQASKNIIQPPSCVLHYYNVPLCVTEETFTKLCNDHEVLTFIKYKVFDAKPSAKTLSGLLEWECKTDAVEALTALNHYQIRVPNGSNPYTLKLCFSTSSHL
# TEST: EMSA; EMSA: ~1 fmol 32P RNA (0.1 nM), 4.5% native PAGE; binding buffer as in cited ref 9, not given; BC50 values printed only in figures
# SETTINGS: protein: recombinant; tags: N-terminal FLAG; label: 32P-CTP body label
RECORDED METRIC: binding result

Take a look at these entries with their results.
binder="CUUACCUACUUACACCACUGCAUUCUCACCCGCAAGCACC (ssRNA) [ESS1 CA1 mutant (CA to TA)]" recorded_measurement=binds
binder="CACACA x4 (N=2 ca spacer) (ssRNA) RNA: GAUCCUUCACACAUUAGAUCUUUCACACAUUAGAUCUUUCACACAUUAGAUCUUUCACACAUUAGAUCU" recorded_measurement=binds
binder="CUUACCUACUCACACGACUGCAUUCUCACCCGCAAGCACC (ssRNA) [ESS1 CA3 mutant (CA to GA)]" recorded_measurement=binds
binder="CAuaCA (N=2) (ssRNA) RNA: GAUCCUACAUACAUAGAUCUUACAUACAUAGAUCUUACAUACAUAGAUCUUACAUACAUAGAUCU" recorded_measurement=binds
binder="CUUACCUACUCAGACCACUGCAUUCUCACCCGCAAGCACC (ssRNA) [ESS1 CA2 mutant (CA to GA)]" recorded_measurement=binds
binder="CUUACCUACUCACACCACUGCAUUCUGACCCGCAAGCACC (ssRNA) [ESS1 CA5 mutant (CA to GA)]" recorded_measurement=binds

Ask: Look at this binder and give its reported binding result. CUUACCUACUCACACCACUGGAUUCUCACCCGCAAGCACC (ssRNA) [ESS1 CA4 mutant (CA to GA)]
Reply: binds
